molecular target: rat brain farnesyl protein transferase (Rattus norvegicus, UniProt Q02293+Q04631); construct: 40-fold purified rat brain farnesyl protein transferase; from tissue; host or cells: rat brain; assay: Protein:farnesyltransferase (PFT/FPT) inhibitory activity assay; type: biochemical; settings: Hepes/5 mM PO4^-3, pH 7.4; read-out: Farnesyl Protein Transferase Inhibition, Hepes/5 mM PO4^-3, IC50
endpoint.label: IC50 (nM)

O=C(N[C@@H](Cc1c[nH]cn1)C(=O)OCCN1CCOCC1)C(Cc1cccc2ccccc12)Cc1cccc2ccccc12 [Example 22]    4300
O=C(N[C@@H](Cc1c[nH]cn1)C(=O)O)C(Cc1cccc2ccccc12)Cc1cccc2ccccc12 [Example 3]    2300
COC(=O)[C@H](Cc1c[nH]cn1)NC(=O)C(Cc1cccc2ccccc12)Cc1cccc2ccccc12 [Example 1]    300
CC(C)OC(=O)[C@H](Cc1c[nH]cn1)NC(=O)C(Cc1cccc2ccccc12)Cc1cccc2ccccc12 [Example 8]    160
CC(C)=CCOC(=O)[C@H](Cc1c[nH]cn1)NC(=O)C(Cc1cccc2ccccc12)Cc1cccc2ccccc12 [Example 55]    4300
CNC(=O)[C@H](Cc1c[nH]cn1)NCC(Cc1cccc2ccccc12)Cc1cccc2ccccc12 [Example 63]    240
N#CCOC(=O)[C@H](Cc1c[nH]cn1)NC(=O)C(Cc1cccc2ccccc12)Cc1cccc2ccccc12 [Example 58]    510
C=CCCOC(=O)[C@H](Cc1c[nH]cn1)NC(=O)C(Cc1cccc2ccccc12)Cc1cccc2ccccc12 [Example 48]    1300
CNC(=O)[C@H](Cc1cncn1C)NC(=O)C(Cc1cccc2ccccc12)Cc1cccc2ccccc12 [Example 64]    460
O=C(N[C@@H](Cc1c[nH]cn1)C(=O)NCCc1c[nH]cn1)C(Cc1cccc2ccccc12)Cc1cccc2ccccc12 [Example 27]    3900
